- subject.of.test: human CaSR (Homo sapiens)
- Sequence (P41180 20-1078): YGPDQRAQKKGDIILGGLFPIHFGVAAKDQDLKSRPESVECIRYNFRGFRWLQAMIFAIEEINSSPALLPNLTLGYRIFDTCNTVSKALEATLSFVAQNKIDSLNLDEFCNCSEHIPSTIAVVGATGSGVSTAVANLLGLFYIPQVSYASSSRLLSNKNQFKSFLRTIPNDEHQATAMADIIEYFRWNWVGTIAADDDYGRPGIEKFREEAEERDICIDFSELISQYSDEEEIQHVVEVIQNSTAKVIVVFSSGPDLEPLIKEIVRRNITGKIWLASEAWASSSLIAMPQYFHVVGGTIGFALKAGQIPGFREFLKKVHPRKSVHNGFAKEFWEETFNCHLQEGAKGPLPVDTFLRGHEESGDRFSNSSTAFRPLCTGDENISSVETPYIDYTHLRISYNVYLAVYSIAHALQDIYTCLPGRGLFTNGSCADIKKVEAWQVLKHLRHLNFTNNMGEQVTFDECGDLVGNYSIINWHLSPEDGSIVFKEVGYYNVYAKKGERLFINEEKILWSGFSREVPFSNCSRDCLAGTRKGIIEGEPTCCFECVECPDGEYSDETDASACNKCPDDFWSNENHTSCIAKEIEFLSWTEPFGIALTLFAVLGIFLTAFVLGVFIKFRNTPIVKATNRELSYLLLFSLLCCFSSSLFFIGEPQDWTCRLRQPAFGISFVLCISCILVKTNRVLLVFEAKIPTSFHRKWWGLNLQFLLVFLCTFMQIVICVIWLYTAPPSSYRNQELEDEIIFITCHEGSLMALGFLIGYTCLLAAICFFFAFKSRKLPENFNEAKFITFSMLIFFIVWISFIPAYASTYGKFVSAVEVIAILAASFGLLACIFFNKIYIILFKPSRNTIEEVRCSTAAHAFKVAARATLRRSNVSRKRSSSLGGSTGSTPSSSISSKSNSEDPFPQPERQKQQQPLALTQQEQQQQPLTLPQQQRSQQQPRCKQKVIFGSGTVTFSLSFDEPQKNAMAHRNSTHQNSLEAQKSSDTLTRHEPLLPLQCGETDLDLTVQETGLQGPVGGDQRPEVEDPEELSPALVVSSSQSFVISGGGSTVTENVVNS
- procedure.details: Assessment of CaSR agonistic activity (Ca2+ fluorescence, FLIPR, hCaSR-transfected 293E cells)
- measurement.setup: human CaSR-expressing 293E cells, 1.5 mM CaCl2 assay buffer, 3-minute change in fluorescence intensity
readout.kind: EC50 (nM)

# count of solved cases: 4
INSERT INTO assay_data (query_smiles, result_number) VALUES
  ('Cc1nnc([C@@H](N)CCC(=O)Nc2cc(Cl)cc(S(=O)(=O)O)c2O)o1', 180),
  ('CN(C)[C@@H](CCC(=O)Nc1cc(Cl)cc(S(=O)(=O)O)c1O)C(=O)O', 1800),
  ('Cc1ccc(NC(=O)NC[C@H](N)C(=O)O)cc1C(=O)O', 15000),
  ('N[C@@H](CCC(=O)Nc1cc(Cl)cc(S(=O)(=O)O)c1O)C(=O)NNC(=O)Cc1ccccc1', 250);

[I] N[C@@H](CNC(=O)Nc1cc(Cl)cc(S(=O)(=O)O)c1O)C(=O)O
[II] Cc1cc(C)c(S(=O)(=O)O)cc1NC(=O)NC[C@H](N)C(=O)O
[III] CS(=O)(=O)NC(=O)[C@@H](N)CCC(=O)Nc1cc(Cl)cc(S(=O)(=O)O)c1O
[IV] N[C@@H](CSC(=O)Nc1cccc(S(=O)(=O)O)c1)C(=O)O
Output the entries ranked by EC50 from maximum down to minimum. To answer, arrange all of the labels according to the requested order.
II, III, IV, I
(II: 1100 nM, III: 390 nM, IV: 40 nM, I: 3 nM)
